Target: equine FcRn (large alpha subunit p51) / equine beta-2-microglobulin complex, biotinylated (equine) (UniProt P30441)
Assay: SPR (Biacore), pH 6
I'd appreciate it if you could supply Kd values for the items below.
Respond with the bare value in nM.

Exercise: # query: Kd of entry equine IgG1 G426Q (antibody, part only; not given: variable domains, not shown: another chain or arm of the molecule) constant: ASTTAPKVFALAPGCGTTSDSTVALGCLVSGYFPEPVKVSWNSGSLTSGVHTFPSVLQSSGFYSLSSMVTVPASTWTSETYICNVVHAASNFKVDKRIEPIPDNHQKVCDMSKCPKCPAPELLGGPSVFIFPPNPKDTLMITRTPEVTCVVVDVSQENPDVKFNWYMDGVEVRTATTRPKEEQFNSTYRVVSVLRIQHQDWLSGKEFKCKVNNQALPQPIERTITKTKGRSQEPQVYVLAPHPDELSKSKVSVTCLVKDFYPPEINIEWQSNGQPELETKYSTTQAQQDSDGSYFLYSKLSVDRNRWQQGTTFTCQVMHEALHNHYTQKNVSKNPGK
Solution: 9.01

Exercise: Check equine IgG4 M428A (antibody, part only; not given: variable domains, not shown: another chain or arm of the molecule) constant: ASTTAPKVFPLASHSAATSGSTVALGCLVSSYFPEPVTVSWNSGALTSGVHTFPSVLQSSGLYSLSSMVTVPASSLKSQTYICNVAHPASSTKVDKKIVIKECNGGCPAECLQVGPSVFIFPPKPKDVLMISRTPTVTCVVVDVGHDFPDVQFNWYVDGVETHTATTEPKQEQFNSTYRVVSVLPIQHKDWLSGKEFKCKVNNKALPAPVERTISKPTGQPREPQVYVLAPHRDELSKNKVSVTCLVKDFYPTDIDIEWKSNGQPEPETKYSTTPAQLDSDGSYFLYSKLTVETNRWQQGTTFTCAVAHEALHNHYTEKSVSKSPGK too.
Solution: 23000

Exercise: Check equine IgG1 Q311G (antibody, part only; not given: variable domains, not shown: another chain or arm of the molecule) constant: ASTTAPKVFALAPGCGTTSDSTVALGCLVSGYFPEPVKVSWNSGSLTSGVHTFPSVLQSSGFYSLSSMVTVPASTWTSETYICNVVHAASNFKVDKRIEPIPDNHQKVCDMSKCPKCPAPELLGGPSVFIFPPNPKDTLMITRTPEVTCVVVDVSQENPDVKFNWYMDGVEVRTATTRPKEEQFNSTYRVVSVLRIQHGDWLSGKEFKCKVNNQALPQPIERTITKTKGRSQEPQVYVLAPHPDELSKSKVSVTCLVKDFYPPEINIEWQSNGQPELETKYSTTQAQQDSDGSYFLYSKLSVDRNRWQQGTTFTCGVMHEALHNHYTQKNVSKNPGK too.
Solution: 20.1

Exercise: Check equine IgG1 M252A (antibody, part only; not given: variable domains, not shown: another chain or arm of the molecule) constant: ASTTAPKVFALAPGCGTTSDSTVALGCLVSGYFPEPVKVSWNSGSLTSGVHTFPSVLQSSGFYSLSSMVTVPASTWTSETYICNVVHAASNFKVDKRIEPIPDNHQKVCDMSKCPKCPAPELLGGPSVFIFPPNPKDTLAITRTPEVTCVVVDVSQENPDVKFNWYMDGVEVRTATTRPKEEQFNSTYRVVSVLRIQHQDWLSGKEFKCKVNNQALPQPIERTITKTKGRSQEPQVYVLAPHPDELSKSKVSVTCLVKDFYPPEINIEWQSNGQPELETKYSTTQAQQDSDGSYFLYSKLSVDRNRWQQGTTFTCGVMHEALHNHYTQKNVSKNPGK too.
Solution: 50.3
